Assay: Cell Viability - LYMP2-026 (AID 989);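 also: cells exposed to compound for 24 h at 37 °C; nearly all actives have a fitted effect of over 50% in size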
Conditions: LYMP2-026 lymphoblastoid cell viability, qHTS; series mostly up to 92.2 µM
Inconclusive results are not listed. Active and inactive are the calls of the source. Calls follow the shape of the dose curve; as a rule, active = well fitted cell-killing curve with a large enough effect; inconclusive = small, poorly fitted or top-dose-only effect; inactive = flat fitted curve, though single readings scatter.
readout-label: outcome

molecule=Cc1ccccc1 reported_value=inactive
molecule=CCOc1ccc2c(c1)C(C)=CC(C)(C)N2 reported_value=inactive
molecule=O=S(=O)(O)O reported_value=inactive
molecule=O=C(O)CCC(=O)C(=O)O reported_value=inactive
molecule=IC(I)I reported_value=inactive

GET /values?readout=outcome&item= `CC(C)=O`
inactive

Check `Nc1ccn([C@H]2CS[C@@H](CO)O2)c(=O)n1` too.
inactive

Check CC(O)CO (stereo not drawn) too.
inactive
